Reported IC50, Amine oxidase [flavin-containing] B (Homo sapiens).
READOUT NAME: IC50 (µM)

1) Cc1cc(=O)oc2cc(OCc3cc[n+](Cc4ccc(F)cc4)cc3)ccc12.[Br-] = 10
2) Cc1cc(=O)oc2cc(OCc3cc[n+](Cc4cccc(Br)c4)cc3)ccc12.[Br-] = 2.19
3) Cc1cc(=O)oc2cc(OCc3cc[n+](Cc4ccccc4F)cc3)ccc12.[Br-] = 4.21
4) Cc1ccccc1C[n+]1ccc(COc2ccc3c(C)cc(=O)oc3c2)cc1.[Br-] = 3.16
5) Cc1cc(=O)oc2cc(OCc3cc[n+](Cc4ccccc4Br)cc3)ccc12.[Br-] = 3.99

The measured values listed here are drawn from ChEMBL document CHEMBL4190307.
